Let's look at some binders and their measured Jurkat Cell Binding (FOI).
molecular target: T1, human CD3 expressed on cells (human, UniProt P07766 23-207; P04234 22-171; P09693 23-182); assay: flow cytometry, 25 nM
T1 construct: whole, on cells; CD3 complex on Jurkat cells and on human primary T cells
T1 sequence (P07766 23-207, chain 1 of 3): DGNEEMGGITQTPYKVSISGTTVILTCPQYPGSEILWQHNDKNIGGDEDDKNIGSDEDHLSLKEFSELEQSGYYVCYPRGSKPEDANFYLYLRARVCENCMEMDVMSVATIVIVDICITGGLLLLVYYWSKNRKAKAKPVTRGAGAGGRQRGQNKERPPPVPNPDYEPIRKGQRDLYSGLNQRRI
T1 sequence (P04234 22-171, chain 2 of 3): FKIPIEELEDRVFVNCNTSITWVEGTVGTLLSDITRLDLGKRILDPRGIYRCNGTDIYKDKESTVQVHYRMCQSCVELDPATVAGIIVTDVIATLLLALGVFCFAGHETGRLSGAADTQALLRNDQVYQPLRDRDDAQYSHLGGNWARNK
T1 sequence (P09693 23-182, chain 3 of 3): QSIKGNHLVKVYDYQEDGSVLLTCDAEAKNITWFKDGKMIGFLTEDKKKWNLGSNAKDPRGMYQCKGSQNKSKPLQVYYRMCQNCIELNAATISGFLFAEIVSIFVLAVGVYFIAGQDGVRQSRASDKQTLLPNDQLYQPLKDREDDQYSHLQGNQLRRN
# value in FOI; strip the unit string

Field: example entries. Status: answers known.
{"columns": ["BINDER", "U", "Jurkat Cell Binding (FOI)"],
 "data": [
  ["mAb 123 (antibody, V domains shown) VH: DVQLVESGGGTVKTGGSLRLSCVASGFSFKKAWMNWVRQAPGKGLEWVGRIKKNSDDGTADYAAPVKGRFTISRDDSKRTLFLQMNSLQTEDTAVYYCTTLDSSSWFVGYYYMDVWGKGTTVTVSS VL: DIQMTQSPSSVSASVGDRVIITCRASQDINNWLAWYQQKPGKAPKLLIYTASSLQSGVPSRFSGSGSVSDFTLTIDSLQPEDFATYYCQQAHSLPITFGQGTRLEIK", "FOI", 159],
  ["mAb 73 (antibody, V domains shown) VH: EVELVESGGGLVQPGRSLRLSCAASGFTFDDKVMHWVRQAPGKGLEWVSCINWNSGHIGYADSVKGRFTISRDNARTSLYLQMNSLRPEDTALYYCVREGNYDFWSGYYRGFFDLWGRGTLVTVSS VL: DIQMTQSPSSLSASVGDRVTITCRASQGIRNDLGWYQQKPGKAPKRLIYAASSLQGGVPSRFSGSGSGTEFTLTISSLQPEDFATYYCLQHTSYPFTFGQGTKLEIK", "FOI", 109]
]}

Next item in the queue.
Q: Give the measured Jurkat Cell Binding (FOI) for mAb 158 (antibody, V domains shown) VH: EVQLVESGGGLVQPGRSLRLSCAASGFTFADYTMHWVRQVPGKGLEWVSGISWNSGSVDYADSVKGRFTISRDNAKKTLYLQMNSLRAEDTALYYCAKDSSGYGHYYFYYLDVWGKGTTVTVSS VL: EIVMTQSPATLSVSPGERATLSCRATQSVSSNLAWYQQKPGQAPRLLIYSTSTRATGIPARFSGSRSGTEFTLTISSLQSEDSAVYYCQQYNNWPHFGQGTRLEIK
Result: 117
